Data origin: ChEMBL document CHEMBL1123533

- assay explanation: Inhibition of [3H]BTX binding to guinea pig voltage-dependent sodium channel
Please provide measured IC50 for the entries that follow.

Give the measured IC50 of CN1CCC(OC(=O)c2ccccc2COc2ccccc2)CC1 . > 10 µM

Need IC50 of CN1CCC(OC(=O)c2ccccc2Br)CC1 , thanks. > 10 µM

GET /values?readout=IC50&item= CCN(CC)CCCOC(=O)c1ccccc1CCc1ccccc1 6 µM

Bench note: what IC50 did CN1CCC(OC(=O)c2ccccc2Cc2ccccc2)CC1 show? 3.4 µM

Give the measured IC50 of CN1CCC(OC(=O)c2ccccc2CCc2ccccc2)CC1 . 5.4 µM

// query IC50 value for entry CCN(CC)CCOC(=O)c1ccccc1-c1ccccc1 7.5 µM

IC50 for CCN(CC)CCOC(=O)c1ccccc1CCc1ccccc1 ? 3.9 µM

Name the recorded IC50 for CN1CCC(OC(=O)c2cccc(O)c2)CC1 . > 10 µM

Looking for the measured IC50 of CN1CCC(C)(OC(=O)c2ccccc2CCc2ccccc2)CC1 , can you help? 3.2 µM

----------
- target: GABA-A receptor; anion channel (Homo sapiens) (UniProt P14867+P47870+P18507+P28472+P48169+Q99928+Q9UN88+P34903+O00591+O14764+Q8N1C3+P18505+P78334+P47869+P31644+Q16445)
- assay explanation: Binding of [3H]- muscimol radioligand against GABA receptor/chloride channel complex at 100 uM
- Type: protein-complex assay
For each entry below, report its inhibition value.
The response must be a number in % with no trailing unit.

Recorded inhibition for CCN(CC)CCOC(=O)c1ccccc1-c1ccccc1 , please? 31

I would be grateful if you could share the reported inhibition for CN1CCC(OC(=O)c2ccccc2CCc2ccccc2)CC1 . 27

Quick one: inhibition for CCC(=O)OC1CCN(C)CC1 ? 10

Reported inhibition, compound CN1CCC(OC(=O)c2ccccc2C(=O)c2ccccc2)CC1 : ____ 21

Item under review: CCN(CC)CCCOC(=O)c1ccccc1-c1ccccc1 . Reported inhibition? 59

Would you kindly share the measured inhibition for CN1CCC(OC(=O)c2ccccc2COc2ccccc2)CC1 ? 35

Query: inhibition; subject: CN1CCC(C)(OC(=O)c2ccccc2CCc2ccccc2)CC1 40

----------
- target: GABA-A receptor; anion channel (Homo sapiens) (UniProt P14867+P47870+P18507+P28472+P48169+Q99928+Q9UN88+P34903+O00591+O14764+Q8N1C3+P18505+P78334+P47869+P31644+Q16445)
- assay explanation: Binding of [3H]- Diazepam radioligand against GABA receptor/chloride channel complex at 100 uM
- Format: protein-complex assay
Please use Fulfilled whenever inhibition is not below 40%, and Not fulfilled whenever it is.

Evaluate CN1CCC(C)(OC(=O)c2ccccc2CCc2ccccc2)CC1 : inhibition at minimum 40%? Fulfilled

# check: inhibition of CN1CCC(OC(=O)c2ccccc2CCc2ccccc2)CC1 is greater than or equal to 40% Fulfilled

Is it the case that CN1CCC(OC(=O)c2ccccc2COc2ccccc2)CC1 has inhibition reaching or exceeding 40%? Not fulfilled

# bool: inhibition of Cc1cc(C)c(C(=O)OC2CCN(C)CC2)cc1C >= 40% Not fulfilled

Tell me whether inhibition is at least 40% here: CCN(CC)CCCOC(=O)c1ccccc1-c1ccccc1 Fulfilled

Identify whether the reported inhibition of the following molecule is 40% or greater: CN1CCC(OC(=O)c2ccccc2C(=O)c2ccccc2)CC1 Fulfilled

Does the molecule CCN(CC)CCOC(=O)c1ccccc1-c1ccccc1 have recorded inhibition that is 40% or more? Not fulfilled
